Origin of measurements: ChEMBL document CHEMBL5214929

# reported IC50; entries follow
target: Broad substrate specificity ATP-binding cassette transporter ABCG2 (Homo sapiens); test: Inhibition of ABCG2 (unknown origin) in Sf9 membrane vesicles using [3H] methotrexate as substrate; format: cell membranes
Sequence (Q9UNQ0 whole entry): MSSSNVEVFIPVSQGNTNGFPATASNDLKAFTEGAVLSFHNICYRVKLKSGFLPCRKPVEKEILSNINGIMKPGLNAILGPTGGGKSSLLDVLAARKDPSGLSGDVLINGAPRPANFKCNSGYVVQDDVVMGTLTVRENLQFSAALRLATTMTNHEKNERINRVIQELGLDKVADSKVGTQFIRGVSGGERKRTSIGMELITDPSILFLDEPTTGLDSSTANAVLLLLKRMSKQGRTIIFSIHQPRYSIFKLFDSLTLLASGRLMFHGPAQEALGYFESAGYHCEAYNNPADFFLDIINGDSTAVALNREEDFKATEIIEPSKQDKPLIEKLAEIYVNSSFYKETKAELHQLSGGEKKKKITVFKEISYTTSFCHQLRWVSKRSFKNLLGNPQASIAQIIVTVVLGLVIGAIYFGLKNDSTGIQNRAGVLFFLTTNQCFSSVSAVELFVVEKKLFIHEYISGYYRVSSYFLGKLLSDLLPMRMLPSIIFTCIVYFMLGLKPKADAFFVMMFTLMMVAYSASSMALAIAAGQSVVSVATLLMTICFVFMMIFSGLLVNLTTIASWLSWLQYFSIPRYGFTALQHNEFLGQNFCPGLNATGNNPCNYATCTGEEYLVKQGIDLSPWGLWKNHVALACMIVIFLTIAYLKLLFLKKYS
measured.parameter: IC50 (µM)

compound="C=CC(O)C#CC#CC(O)/C=C\\CCCCCCC (configuration not stated)" measured_parameter=IC50 units_label=µM val=29.7
compound="C=CC(O)C#CC#CC/C=C\\CCCCCCC (configuration not stated)" measured_parameter=IC50 units_label=µM val=41.7

###

target: Broad substrate specificity ATP-binding cassette transporter ABCG2 (Homo sapiens); test: Inhibition of ABCG2 (unknown origin)
pIC50: −log10 of the molar value.
measured.parameter: pIC50

smiles_input=Cn1cc(-c2cc3c(N4CCN(c5ncc([C@@](C)(N)c6ccc(F)cc6)cn5)CC4)ncnn3c2)cn1 measured_target="Broad substrate specificity ATP-binding cassette transporter ABCG2 (Homo sapiens)" val=8.82
